Assay: NCI Yeast Anticancer Drug Screen. Data for the sgs1 mgt1 strain (AID 161);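 also: 0% = growth of cultures given vehicle only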
Conditions: S. cerevisiae sgs1 mgt1 strain, at 50.0 µM, stronger effect = higher value
About 79,000 compounds went through this panel and 15% of them were active in at least one assay; those are over-represented in the sample as a whole.
Measured growth inhibition, listed per entry for reference.
MEASURED PARAMETER: growth inhibition (%)

1) CCN(CC)CC#N = -6.4
2) O=P(O)(O)SP(=O)(O)O.[Zn+2] = -15.8
3) O=S1(=O)OCCO1 = -3.8
4) C=CCOCN1c2cc(OC)c([C@@]3(C(=O)OC)C[C@@H]4CN(CCc5c3[nH]c3ccccc53)C[C@](O)(CC)C4)cc2[C@@]23CCN4CC=C[C@@](CC)([C@@H](OC(C)=O)[C@](O)(C(=O)OC)[C@H]12)[C@H]43 = 2.35
5) C[CH2][Pb]([CH2]C)([CH2]C)[N]1C(=O)c2c(Cl)c(Cl)c(Cl)c(Cl)c2C1=O = 93.1
6) [Au].[NH-]CC[NH-].[NH-]CC[NH-] = -17.4
7) O=C(Cc1ccc(N(CCCl)CCCl)cc1)NC1CCCC1 = -13.9
8) CC(=O)CCC(=O)O.[Ni] = -7.45
9) CCCCCCCCCCC(=O)O = 24.9
10) CCOP(=S)(OCC)Oc1ccc2c(c1)OC(=O)C1(Cl)C2(C)C2(Cl)C(=O)Oc3cc(OP(=S)(OCC)OCC)ccc3C12C (stereo unspecified) = 3.45
11) COP(=O)(Oc1ccccc1)Oc1ccccc1 = 23.9

* * *

Assay: NCI Yeast Anticancer Drug Screen. Data for the cln2 rad14 strain (AID 165);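 also: 0% = growth equal to vehicle treated cultures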
Settings: S. cerevisiae cln2 rad14 strain, at 50.0 µM, stronger effect = higher value
About 79,000 compounds went through this panel and 15% of them were active in at least one assay; those are over-represented in the sample as a whole.
MEASURED PARAMETER: growth inhibition (%)

1) NNC(=O)c1ccccc1 = -36
2) CC1[N-]C(/C=N/O)NC(C)N1.CC1[N-]C(/C=N/O)NC(C)N1.[Br][Ni+2][Br] (configuration not stated) = -19
3) O=C(O)Cc1ccc(O)c(O)c1.[Pt].c1ccc([PH+](c2ccccc2)c2ccccc2)cc1.c1ccc([PH+](c2ccccc2)c2ccccc2)cc1 = 42.5
4) Nc1ccc([N+](=O)[O-])cc1N = -36.9
5) [N-]=[N+]=C1C(=O)C2CC3CC1CC2C3 (configuration not stated) = 8.55
6) CC1CC[Si](C)(C)CC12C(=O)NC(=O)NC2=O (configuration not stated) = -0.05
7) O=[N+]([O-])C1CCC(O)C([N+](=O)[O-])C1 (configuration not stated) (tested in a mixture with another compound) = 69.3
8) CNCCc1cccs1 = -29.1
9) CCOP(O)OCC = 23.9
10) O=C(O)C1C2Cc3ccccc3C1c1ccccc12 (configuration not stated) = 0.6
11) CCC[As](=O)(O)Cc1ccccc1C = -1.3
12) CCOC(C(=O)O)(c1ccccc1)c1ccccc1 = -10.1

* * *

Recorded growth inhibition values for a group of compounds are listed next.
Experiment: NCI Yeast Anticancer Drug Screen. Data for the cln2 rad14 strain (AID 165);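 also: 0% = growth equal to vehicle treated cultures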
Conditions: S. cerevisiae cln2 rad14 strain, at 50.0 µM, stronger effect = higher value
About 79,000 compounds went through this panel and 15% of them were active in at least one assay; those are over-represented in the sample as a whole.
MEASURED PARAMETER: growth inhibition (%)

1. CCCC[N+]1(C)CCC(OC(=O)C(O)(c2ccccc2)C2CCCC2)C1 (configuration not stated) = -32.8
2. CC(=O)CC(C)=O = -11.3
3. CCCCC1(CCO)C(=O)NC(=O)NC1=O = -19.1
4. C1=CC2C=CC(C=C1)[PH+]2c1ccccc1.C1=CC2C=CC(C=C1)[PH+]2c1ccccc1.[C-]#[O+].[C-]#[O+].[C-]#[O+].[Fe] (configuration not stated) = 26.1
5. CC(=O)C1CCC2C3CCC4CC(O)CCC4(C)C3CCC12C (configuration not stated) = 26.8
6. CC(C)C1(Cc2ccccc2)C(=O)NC(=S)NC1=O = -2.85
7. OCCCN=Cc1ccccc1O.OCCCN=Cc1ccccc1O.[Cu] = -32.1
8. CC1=C2[C@H]3OC(=O)[C@@H](C)[C@@H]3CC[C@@]2(C)C=CC1=O = 15.2
9. C/C(CCl)=N/NC1=NC(C)(CCC2(C)N=C(N/N=C(/C)CCl)SP2(=O)NC23CC4CC(CC(C4)C2)C3)P(=O)(NC23CC4CC(CC(C4)C2)C3)S1 (configuration not stated) = -21.8
10. CC(=O)N1CN2CN(C1)CN(C(C)=O)C2 = -26.6
11. O=[N+]([O-])NC1=NCCN1CCCl = -25.1
12. CN1CCC2(CC1)COCc1ccccc12 = -19.1
13. O=NN(CCCl)C(=O)O = -42.8
14. CC(=O)c1ccc(Br)cc1 = 8.7
15. CC1CC(O)C(=O)C(O[C@@H]2C[C@@H]3CC[C@@H]4[C@H](CC[C@]5(C)C(C6=CC(=O)OC6)CC[C@]45O)[C@@]3(C=O)C[C@H]2O)O1 (some centres not stated) = -2.6
16. Cc1ccc2[nH]cc(CCN)c2c1 = 21.8
17. CN1CCNCC1 = -18.4
18. c1ccc2c(c1)SCCC2NC1=NCCO1 (configuration not stated) = 9.45
19. CCC(=O)C(c1ccccc1)(c1ccccc1)C(C)CN(C)C (configuration not stated) = -5.55
20. CCC1(CC)C(=O)NC(=O)[N]([Sn]([CH3])([CH3])[N]2C(=O)NC(=O)C(CC)(CC)C2=O)C1=O = -19.4
21. O=c1n(CC2CS2)c2ccccc2n1CC1CS1 (configuration not stated) = -30.4
22. CC(C)N(C(C)C)P(OCCC#N)OC1CC(n2cnc3c(=O)[nH]cnc32)OC1COC(=O)NCCCCCCNC(=O)OC(C)(C)c1ccc(-c2ccccc2)cc1 (configuration not stated) = 10
